Hello, the source for this data is the supplement of paper PMC8612539, in case you need it.

# Test system: Mannheimia haemolytica
# experimentalDetails: minimum inhibitory concentration (MIC)
# conditionContext: isolate (source animal id): 162

compound | testTarget | relationSymbol | minimum inhibitory concentration [µg/mL]
CN(C)[C@@H]1C(O)=C(C(N)=O)C(=O)[C@@]2(O)C(O)=C3C(=O)c4c(O)cccc4[C@@](C)(O)[C@H]3C[C@@H]12 [Tetracycline] | Mannheimia haemolytica | = | 4
CC[C@H]1OC(=O)C[C@@H](O)[C@H](C)[C@@H](O[C@@H]2O[C@H](C)[C@@H](O[C@H]3C[C@@](C)(O)[C@@H](O)[C@H](C)O3)[C@H](N(C)C)[C@H]2O)[C@@H](CC=O)C[C@@H](C)C(=O)/C=C/C(C)=C/[C@@H]1CO[C@@H]1O[C@H](C)[C@@H](O)[C@@H](OC)[C@H]1OC [Tylosin] | Mannheimia haemolytica | > | 32

###

# Test system: Mannheimia haemolytica
# experimentalDetails: minimum inhibitory concentration (MIC)
# conditionContext: isolate (source animal id): 141

testSmiles | minimum inhibitory concentration
CS(=O)(=O)c1ccc([C@@H](O)[C@@H](CF)NC(=O)C(Cl)Cl)cc1 | > 8 mg/L
CC1(C)S[C@@H]2[C@H](NC(=O)[C@H](N)c3ccccc3)C(=O)N2[C@H]1C(=O)O | ≤ 0.25 mg/L
COc1cc(NS(=O)(=O)c2ccc(N)cc2)nc(OC)n1 | > 256 mg/L
COc1cc(Cc2cnc(N)nc2N)cc(OC)c1OC.Cc1cc(NS(=O)(=O)c2ccc(N)cc2)no1 | ≤ 2 mg/L
C=C[C@]1(C)C[C@@H](OC(=O)CSCCN(CC)CC)[C@]2(C)[C@H](C)CC[C@]3(CCC(=O)[C@H]32)[C@@H](C)[C@@H]1O | 8 mg/L
CCCN1C[C@H](C)[C@@H](O)[C@](C)(O)[C@@H](CC)OC(=O)[C@H](C)[C@@H](O[C@H]2C[C@@](C)(OC)[C@@H](O)[C@H](C)O2)[C@H](C)[C@@H](O[C@@H]2O[C@H](C)C[C@H](N(C)C)[C@H]2O)[C@](C)(O)C[C@H]1C | > 8 mg/L

###

# Test system: Histophilus somni
# experimentalDetails: minimum inhibitory concentration (MIC)
# conditionContext: isolate (source animal id): 269
minimum inhibitory concentration by entry:
valueKind: minimum inhibitory concentration (µg/mL)

molecule | unitOfMeasurement | relationSymbol | experimentalValue
CNC(C)C1CCC(N)C(OC2C(N)CC(N)C(OC3OCC(C)(O)C(NC)C3O)C2O)O1 (stereo not given) [Gentamicin] | µg/mL | = | 4
CS(=O)(=O)c1ccc([C@@H](O)[C@@H](CF)NC(=O)C(Cl)Cl)cc1 [Florfenicol] | µg/mL | ≤ | 0.25
CCCNC[C@]1(O)[C@H](C)O[C@@H](O[C@H]2[C@H](C)[C@@H](O[C@@H]3O[C@H](C)C[C@H](N(C)C)[C@H]3O)[C@](C)(O)C[C@@H](C)CN[C@H](C)[C@@H](O)[C@](C)(O)[C@@H](CC)OC(=O)[C@@H]2C)C[C@@]1(C)OC [Tulathromycin] | µg/mL | ≤ | 8
CN(C)[C@@H]1C(O)=C(C(N)=O)C(=O)[C@@]2(O)C(O)=C3C(=O)c4c(O)cccc4[C@@](C)(O)[C@H]3C[C@@H]12 [Tetracycline] | µg/mL | = | 1
CN[C@@H]1[C@H](O)[C@H](NC)[C@H]2O[C@@]3(O)C(=O)C[C@@H](C)O[C@H]3O[C@@H]2[C@H]1O [Spectinomycin] | µg/mL | > | 64
